- Test system: Tyrosine-protein kinase ABL1 (Homo sapiens), P00519 [E255K]
- Sequence (P00519 whole entry E255K): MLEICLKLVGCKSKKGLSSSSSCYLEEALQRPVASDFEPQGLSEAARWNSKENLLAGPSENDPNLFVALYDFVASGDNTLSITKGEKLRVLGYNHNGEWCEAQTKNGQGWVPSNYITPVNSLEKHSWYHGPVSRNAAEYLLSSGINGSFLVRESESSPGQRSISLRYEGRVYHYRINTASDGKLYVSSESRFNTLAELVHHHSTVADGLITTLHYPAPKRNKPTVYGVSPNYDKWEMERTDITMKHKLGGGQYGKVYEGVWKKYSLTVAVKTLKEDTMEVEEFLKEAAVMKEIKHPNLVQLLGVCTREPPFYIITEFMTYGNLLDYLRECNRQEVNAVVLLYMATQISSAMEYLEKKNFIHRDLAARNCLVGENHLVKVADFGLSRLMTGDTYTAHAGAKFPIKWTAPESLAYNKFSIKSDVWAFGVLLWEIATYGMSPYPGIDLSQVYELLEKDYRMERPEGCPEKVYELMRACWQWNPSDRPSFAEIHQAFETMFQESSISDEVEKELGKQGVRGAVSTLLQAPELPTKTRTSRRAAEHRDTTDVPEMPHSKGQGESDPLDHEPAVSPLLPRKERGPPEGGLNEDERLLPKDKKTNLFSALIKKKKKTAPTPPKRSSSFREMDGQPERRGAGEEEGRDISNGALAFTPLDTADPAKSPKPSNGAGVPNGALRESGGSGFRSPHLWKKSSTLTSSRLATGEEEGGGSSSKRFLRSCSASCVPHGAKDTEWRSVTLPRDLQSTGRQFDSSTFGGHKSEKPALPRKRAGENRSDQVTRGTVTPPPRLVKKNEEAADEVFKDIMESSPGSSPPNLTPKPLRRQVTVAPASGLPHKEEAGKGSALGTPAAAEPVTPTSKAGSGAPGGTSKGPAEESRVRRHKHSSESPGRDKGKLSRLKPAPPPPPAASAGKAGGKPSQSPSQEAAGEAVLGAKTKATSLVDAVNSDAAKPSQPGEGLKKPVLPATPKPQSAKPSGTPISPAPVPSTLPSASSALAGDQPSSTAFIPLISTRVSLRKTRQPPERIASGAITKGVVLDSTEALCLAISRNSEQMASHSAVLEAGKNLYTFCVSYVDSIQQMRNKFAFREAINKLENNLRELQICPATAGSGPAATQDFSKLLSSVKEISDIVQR
- testContext: at 0.1 µM
Measured inhibition, listed per entry for reference.

# smilesRepr, inhibition
measured = [
    ("NS(=O)(=O)c1ccc(Nc2cc(-c3cccc(O)c3)n[nH]2)cc1", "4.46%"),
    ("COc1cccc(-n2ncc3c(N/N=C/c4ccc(S(C)(=O)=O)cc4)ncnc32)c1", "79%"),
    ("CN1CCN(C(=O)c2ccc(NC(=O)Nc3ccc(N(C)c4ccnc(Nc5ccc(CS(C)(=O)=O)cc5)n4)cc3)cc2)CC1", "3.11%"),
    ("CN(C)C(=O)O[C@@H]1CN[C@@H](C#Cc2cc3ncnc(Nc4ccc(OCc5cccc(F)c5)c(Cl)c4)c3s2)C1", "-0.68%"),
    ("CC(C)c1ccc2c(c1)NC(=O)/C2=N/Nc1ccc(S(N)(=O)=O)cc1", "1.09%"),
    ("OCc1ccc(-c2nc(-c3ccccn3)c(-c3ccc4c(c3)OCO4)[nH]2)cc1", "4%"),
    ("NS(=O)(=O)c1cccc(Nc2cc(-c3ccc(F)cc3)n[nH]2)c1", "1.07%"),
    ("Oc1cccc(-c2nc(-c3ccccc3)[nH]c2-c2ccncc2)c1", "6.54%"),
]

Next, consider the following compound.
input: Query inhibition on Tyrosine-protein kinase ABL1 (Homo sapiens), P00519 [E255K] for [O-][S+]1CCN(Cc2ccc(-c3ccc4ncnc(Nc5ccc(OCc6ccccc6)c(Cl)c5)c4c3)o2)CC1
output: 1.62%

###

- targetSystem: Calcium/calmodulin-dependent protein kinase type IV (Homo sapiens) (UniProt Q16566);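 also: each value is the mean of the measured CAMK4 inhibition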
- Sequence (Q16566 whole entry): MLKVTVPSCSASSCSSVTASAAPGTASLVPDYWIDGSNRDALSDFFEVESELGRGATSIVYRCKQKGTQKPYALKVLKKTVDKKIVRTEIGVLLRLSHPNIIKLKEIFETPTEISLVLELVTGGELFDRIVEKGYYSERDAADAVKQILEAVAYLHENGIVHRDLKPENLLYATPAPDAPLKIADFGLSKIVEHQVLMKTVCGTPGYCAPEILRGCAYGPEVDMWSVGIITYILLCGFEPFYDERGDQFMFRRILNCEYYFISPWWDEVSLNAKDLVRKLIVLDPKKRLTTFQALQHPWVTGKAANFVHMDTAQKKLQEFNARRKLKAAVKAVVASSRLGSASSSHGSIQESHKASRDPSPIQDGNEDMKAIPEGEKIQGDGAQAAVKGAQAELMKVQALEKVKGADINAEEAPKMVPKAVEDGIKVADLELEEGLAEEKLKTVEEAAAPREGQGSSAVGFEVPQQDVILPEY
- testContext: at 1 µM
Form field: inhibition (one value per entry).
Quick reminder: number only, in %, skip the unit.

Worked cases, inhibition given:
# smilesRepr, targetSystem, numericValue
records = [
    ("Nc1nccc(-c2c(-c3ccc(F)cc3)nn3cc(C(F)(F)F)ccc23)n1", "Calcium/calmodulin-dependent protein kinase type IV (Homo sapiens) (UniProt Q16566)", -1),
    ("CN1CCN(C(=O)c2ccc(NC(=O)Nc3ccc(N(C)c4ccnc(Nc5ccc(CS(C)(=O)=O)cc5)n4)cc3)cc2)CC1", "Calcium/calmodulin-dependent protein kinase type IV (Homo sapiens) (UniProt Q16566)", 1.48),
    ("NS(=O)(=O)c1cccc(-c2cc3ccncc3cc2OCc2ccccc2)c1", "Calcium/calmodulin-dependent protein kinase type IV (Homo sapiens) (UniProt Q16566)", -0.46),
    ("COC(=O)c1cncc(/C=C/c2c(C)cc(O)cc2C)c1", "Calcium/calmodulin-dependent protein kinase type IV (Homo sapiens) (UniProt Q16566)", -4.13),
    ("NS(=O)(=O)c1ccc(-c2cc3ccncc3cc2OCc2ccccc2)cc1", "Calcium/calmodulin-dependent protein kinase type IV (Homo sapiens) (UniProt Q16566)", 2.15),
    ("NS(=O)(=O)c1ccc(NC=C2C(=O)Nc3ccc4ncsc4c32)cc1", "Calcium/calmodulin-dependent protein kinase type IV (Homo sapiens) (UniProt Q16566)", 6.33),
]

input: // fetch Calcium/calmodulin-dependent protein kinase type IV (Homo sapiens) (UniProt Q16566) inhibition for C[C@@H](Oc1cc(-n2cnc3ccc(OC[C@@H](O)CO)cc32)sc1C(N)=O)c1ccccc1Cl
output: 1.44

input: Now the same for COc1cccc(-n2nc(C)c3c(N/N=C(\C)c4ccncc4)ncnc32)c1
output: 0.81

input: What do we get for NC(=O)c1cccc(Nc2nccc(Nc3cccc(F)c3)n2)c1 ?
output: 1.02

input: Moving on to the next compound: O=C(Nc1ccc(Oc2ccc3[nH]c(NC(=O)c4ccco4)nc3c2)cc1)Nc1cc(C(F)(F)F)ccc1F
output: 4.62

input: What do you get for CCS(=O)(=O)c1ccc(OC)c(Nc2ncc(-c3cccc(OC)c3)o2)c1 ?
output: 1.2

input: And then Nc1nccc(C#Cc2cncnc2Nc2ccc(OCc3cccc(F)c3)c(Cl)c2)n1 , what is it?
output: 0.61

input: Also NS(=O)(=O)c1ccc(Nc2cc(-c3cccc(O)c3)n[nH]2)cc1 ?
output: -1.03

input: Next compound: COc1cccc(-n2ncc3c(N/N=C/c4ccc(C)cc4)ncnc32)c1
output: 4.68

input: Record: O=C1Nc2ccc(-c3cccnc3)cc2C1=Cc1cc(Br)c(O)c(Br)c1
output: -0.48

input: Also check ON=C1CCc2cc(-c3nc(C4CCNCC4)[nH]c3-c3ccncc3)ccc21
output: 1.79

input: What do you get for CCn1c(-c2nonc2N)nc2c(C#CC(C)(C)O)nc(OCCNC)cc21 ?
output: 2.52

input: Entry to check: Nc1ccc(C#Cc2cncnc2Nc2ccc(OCc3cccc(F)c3)c(Cl)c2)cc1
output: -0.16

###

- targetSystem: MAP/microtubule affinity-regulating kinase 4 (Homo sapiens);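 also: reported value is a mean MARK4 inhibition at 1 µM, taken from the GSK PKIS screening set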
- testContext: at 1 µM
assayReadout: inhibition (%)
Report as a plain number; the unit % is understood.

input: Form field: reported inhibition of COC(=O)Nc1nc2cc(Oc3ccc(NC(=O)Nc4cccc(Br)c4)cc3)ccc2[nH]1
output: 1.17

input: Please give the result for c1ccc(Nc2ncc(-c3ccccc3)o2)cc1 too.
output: 4.32

input: Same read-out for Cc1ccc(O)cc1Nc1ccnc2ccc(S(C)(=O)=O)cc12 ?
output: 1.71

input: Same read-out for COC(=O)c1ccc2c(c1)C(=Cc1cc(Br)c(O)c(Br)c1)C(=O)N2 ?
output: 5.08

input: Again, but for C[C@@H](Oc1cc(-n2cnc3ccc(OC[C@@H](O)CO)cc32)sc1C(N)=O)c1ccccc1Cl
output: 5.24

###

Known inhibition of a selection of compounds
- targetSystem: MAP kinase-interacting serine/threonine-protein kinase 1 (Homo sapiens);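 also: each value is an averaged percent inhibition of MKNK1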
- testContext: at 1 µM
Lab note: write values as number then unit, every time.

Example entries and their recorded answers appear below.
# smilesRepr, result
records = [
    ("C[C@@H](Oc1cc(-n2cnc3ccc(OC[C@@H](O)CO)cc32)sc1C(N)=O)c1ccccc1Cl", "2.69%"),
    ("O=S(=O)(CCOCc1ccc(-c2ccc3ncnc(Nc4ccc(OCc5cccc(F)c5)c(Cl)c4)c3c2)o1)c1ccccc1", "4.07%"),
    ("COC(=O)Nc1nc2cc(Oc3ccc(NC(=O)Nc4cccc(Br)c4)cc3)ccc2[nH]1", "8.85%"),
    ("Cc1cc(-c2ccccn2)cc(C)c1/C=C/c1cncc(-c2nn[nH]n2)c1", "3.07%"),
    ("CN(C)c1cc2c(Nc3ccc4c(cnn4Cc4ccccc4)c3)ncnc2cn1", "19.4%"),
]

Note: attention shifts to another entry.
input: Reported inhibition, compound c1ccc(Cc2nc3ccc(Nc4ncnc5ccccc45)cc3[nH]2)cc1 : ____
output: 5.06%

###

- targetSystem: Tyrosine-protein kinase Fer (Homo sapiens) (UniProt P16591);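 also: reported figures are averaged percent inhibition of FER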
- Sequence (P16591 whole entry, looked up): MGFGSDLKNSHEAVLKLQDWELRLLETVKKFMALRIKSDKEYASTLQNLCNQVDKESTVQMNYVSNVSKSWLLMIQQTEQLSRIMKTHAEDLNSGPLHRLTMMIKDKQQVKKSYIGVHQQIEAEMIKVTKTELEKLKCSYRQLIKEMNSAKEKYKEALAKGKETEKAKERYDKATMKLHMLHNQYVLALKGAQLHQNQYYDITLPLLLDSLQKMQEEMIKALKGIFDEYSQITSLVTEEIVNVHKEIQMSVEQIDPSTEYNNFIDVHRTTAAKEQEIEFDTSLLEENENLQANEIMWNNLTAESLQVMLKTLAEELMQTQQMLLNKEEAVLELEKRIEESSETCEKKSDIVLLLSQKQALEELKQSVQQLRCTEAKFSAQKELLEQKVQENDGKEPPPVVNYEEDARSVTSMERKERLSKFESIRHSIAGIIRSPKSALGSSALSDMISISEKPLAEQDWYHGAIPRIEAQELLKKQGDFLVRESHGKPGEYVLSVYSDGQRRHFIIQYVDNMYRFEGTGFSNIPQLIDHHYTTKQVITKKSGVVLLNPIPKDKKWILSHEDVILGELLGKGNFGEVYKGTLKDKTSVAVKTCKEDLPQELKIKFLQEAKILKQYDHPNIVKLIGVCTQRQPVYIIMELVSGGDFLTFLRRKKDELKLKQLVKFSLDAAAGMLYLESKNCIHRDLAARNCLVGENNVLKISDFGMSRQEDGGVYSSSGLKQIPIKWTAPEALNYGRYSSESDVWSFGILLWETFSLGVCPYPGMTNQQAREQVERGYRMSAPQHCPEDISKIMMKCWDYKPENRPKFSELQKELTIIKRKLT
- testContext: at 0.1 µM
Overview of recorded inhibition for various compounds
// units = %; emit number, no label

# smilesRepr, unitsLabel, inhibition
rows = [
    ("NC(=O)c1sc(-n2cnc3ccccc32)cc1OCc1ccccc1Br", "%", -0.27),
]

input: Need inhibition, item CC(C)c1ccc(Nc2nccc(-c3cnn4ncccc34)n2)cc1
output: 5.74

input: Query Oc1cccc(-c2nc(-c3ccccc3)[nH]c2-c2ccncc2)c1 next
output: 3.43

input: // same read-out, input: COc1cc2ncn(-c3cc(OCc4ccccc4S(C)(=O)=O)c(C#N)s3)c2cc1OC
output: 6.67

###

- targetSystem: MAP kinase-activated protein kinase 5 (Homo sapiens);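 also: mean inhibition of PRAK measured in the GSK PKIS screen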
- testContext: at 1 µM
Entry flag: y if inhibition reaches 1%; n if it does not.

Solved entries (count: 3):
# smilesRepr, targetSystem, labelValue
rows = [
    ("COC(=O)Nc1nc2cc(Oc3ccc(NC(=O)Nc4cccc(Br)c4)cc3)ccc2[nH]1", "MAP kinase-activated protein kinase 5 (Homo sapiens)", "y"),
    ("COc1ccc2ncnc(Nc3ccc(OCc4ccccc4)cc3)c2c1", "MAP kinase-activated protein kinase 5 (Homo sapiens)", "y"),
    ("Nc1nccc(-c2c(-c3ccc(F)cc3)nn3cc(C(F)(F)F)ccc23)n1", "MAP kinase-activated protein kinase 5 (Homo sapiens)", "n"),
]

input: I'd appreciate it if you could say whether N#Cc1cccc(Nc2nccc(-c3cnn4ncccc34)n2)c1 has inhibition at least equal to 1%.
output: y

input: Further, for Nc1nccc(-c2c(-c3ccc(F)cc3)ncn2CCCN2CCOCC2)n1 ?
output: y

###

Listed below: inhibition values for each entry.
- targetSystem: Serine/threonine-protein kinase SIK1 (Homo sapiens) (UniProt P57059);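 also: reported as mean inhibition, part of the GSK PKIS screen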
- Sequence (P57059 whole entry): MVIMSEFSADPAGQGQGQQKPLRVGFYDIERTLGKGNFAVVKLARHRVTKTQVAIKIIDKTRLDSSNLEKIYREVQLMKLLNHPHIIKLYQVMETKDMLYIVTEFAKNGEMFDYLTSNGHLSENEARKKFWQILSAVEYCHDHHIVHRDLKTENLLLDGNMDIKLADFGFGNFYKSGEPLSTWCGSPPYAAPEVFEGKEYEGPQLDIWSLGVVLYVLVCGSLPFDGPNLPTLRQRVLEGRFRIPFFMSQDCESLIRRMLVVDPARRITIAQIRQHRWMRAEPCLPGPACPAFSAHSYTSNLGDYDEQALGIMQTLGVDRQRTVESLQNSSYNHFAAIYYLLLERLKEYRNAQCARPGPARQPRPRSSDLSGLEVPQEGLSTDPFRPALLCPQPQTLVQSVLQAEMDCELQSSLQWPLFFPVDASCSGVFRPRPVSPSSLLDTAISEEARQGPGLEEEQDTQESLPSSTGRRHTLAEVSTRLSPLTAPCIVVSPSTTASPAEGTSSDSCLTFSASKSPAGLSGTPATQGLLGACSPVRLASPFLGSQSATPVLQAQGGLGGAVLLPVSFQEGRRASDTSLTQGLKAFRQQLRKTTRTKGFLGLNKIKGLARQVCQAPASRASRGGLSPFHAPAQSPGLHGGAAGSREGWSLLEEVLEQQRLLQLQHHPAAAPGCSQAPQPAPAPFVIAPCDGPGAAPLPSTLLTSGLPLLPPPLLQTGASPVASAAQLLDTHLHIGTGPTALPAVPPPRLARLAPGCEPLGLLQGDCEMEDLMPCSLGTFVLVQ
- testContext: at 0.1 µM
Write it as a number; the unit % goes unstated.

Before answering, review these 8 worked examples.
# smilesRepr, targetSystem, numericValue
data = [
    ("CS(=O)(=O)Nc1cccc(-c2ccc3c(NC(=O)C4CC4)n[nH]c3c2)c1", "Serine/threonine-protein kinase SIK1 (Homo sapiens) (UniProt P57059)", -0.72),
    ("NS(=O)(=O)c1cccc(-c2cc3ccncc3cc2OCc2ccccc2)c1", "Serine/threonine-protein kinase SIK1 (Homo sapiens) (UniProt P57059)", 0.44),
    ("O=C(Nc1ccc(Oc2ccc3[nH]c(NC(=O)c4ccco4)nc3c2)cc1)Nc1cc(C(F)(F)F)ccc1F", "Serine/threonine-protein kinase SIK1 (Homo sapiens) (UniProt P57059)", 4.18),
    ("CN1CCN(C(=O)c2ccc(NC(=O)Nc3ccc(N(C)c4ccnc(Nc5ccc(CS(C)(=O)=O)cc5)n4)cc3)cc2)CC1", "Serine/threonine-protein kinase SIK1 (Homo sapiens) (UniProt P57059)", 3.16),
    ("O=C1Nc2ccc(-c3cccnc3)cc2C1=Cc1cc(Br)c(O)c(Br)c1", "Serine/threonine-protein kinase SIK1 (Homo sapiens) (UniProt P57059)", 6.08),
    ("NS(=O)(=O)c1ccc(NC=C2C(=O)Nc3ccc4ncsc4c32)cc1", "Serine/threonine-protein kinase SIK1 (Homo sapiens) (UniProt P57059)", 5.99),
    ("Nc1nccc(-c2c(-c3ccc(F)cc3)ncn2CCCN2CCOCC2)n1", "Serine/threonine-protein kinase SIK1 (Homo sapiens) (UniProt P57059)", 2.84),
    ("COc1cccc(-n2ncc3c(N/N=C/c4ccc(C)cc4)ncnc32)c1", "Serine/threonine-protein kinase SIK1 (Homo sapiens) (UniProt P57059)", 7.95),
]

For the next question, use this compound.
input: Requested read-out: inhibition. Entry: COc1ccc(-c2nn3ncccc3c2-c2ccnc(Nc3cccc(C(F)(F)F)c3)n2)cc1
output: 7.99
